The measurements presented in this section are drawn from the supplement of paper PMC13380429.

test system: Caco-2; test: cell viability relative to DMSO; higher = less toxic; settings: 72 h; 10 nM
For each entry below, report its cell viability value.
Give bare numbers, in %.

As a guide, the following entries are already answered.
compound	cell viability, %
Cc1[nH]c(/C=C2\C(=O)Nc3ccc(S(=O)(=O)N(C)c4cccc(Cl)c4)cc32)c(C)c1C(=O)N1CCN(C)CC1	98.5
C=C1CCN([C@H](C)[C@](O)(Cn2cncn2)c2ccc(F)cc2F)CC1	98.3
CC(C)(C)Nc1nc(Nc2ccc(C(N)=O)cc2)cc(N)c1C#N	101
O=C1NC(=O)C(c2ccccc2[N+](=O)[O-])=C1Nc1ccc(O)c(Cl)c1	94.3
CC(CCc1ccccc1)NC(C)C(O)c1ccc(O)cc1 (centres undefined)	102
CCOC(=O)N1CSC[C@H]1C(=O)O	93.6
O=C(NCCCCN1CCN(c2cccc(Cl)c2Cl)CC1)c1ccc2c(c1)Cc1ccccc1-2	97.2
N[C@@H](Cc1cc(-c2ccc(Cl)cc2Cl)cc(CP(=O)(O)O)c1O)C(=O)O	99.5
COc1cc(NS(=O)(=O)c2ccc(N)cc2)nc(OC)n1	99.9
COc1ccc(CNC(=O)c2sc3nc(C)cc(C)c3c2N)cc1	96.7

Could you report cell viability for every entry in the following list?
1. CNCC[C@@H](Oc1ccccc1C)c1ccccc1
2. O=c1cc(N2CCN(c3cccc(C(F)(F)F)c3)CC2)[nH]c(=O)n1C1CCCCC1
3. Cc1ccc(NC(=O)c2cccc(N(C)C)c2)cc1NC(=O)c1ccc(O)cc1
4. O=C1[C@H](Cc2ccc(O)cc2)N2C(=O)CCN(C(=O)NCc3ccccc3)[C@H]2CN1Cc1cccc2ccccc12

-- reply
[96.8, 96.8, 102, 94.2]

Could you report cell viability for every entry in the following list?
1. O=S(=O)(c1ccccc1)c1cnc2c(N3CCNCC3)cccc2c1
2. CC(C)Oc1ccc(-c2nc(-c3cccc4c3CC[C@@H]4NCCO)no2)cc1C#N
3. CN1CCN(c2ccc3[nH]c(-c4ccc5[nH]c(-c6ccc(O)cc6)nc5c4)nc3c2)CC1
4. CC(C)=CCC/C(C)=C/CNCCNC1C2CC3CC(C2)CC1C3 (centres undefined)

-- reply
1: 101; 2: 75.2; 3: 88.8; 4: 107

-- ask State cell viability (Caco-2) of Cc1cc(NC(=O)Nc2ccc(N(C)C)cc2)c2cc(F)cc(F)c2n1 .
-- reply 103
